test system: DU-145 prostate; assay: NCI tumour cell line growth inhibition, 48 h
READOUT_NAME: TGI

Field: example entries. Status: answers known.
[
  {
    "COMPOUND": "C1=C\\CCCCN2CC[C@H]3[C@H](CCCC/C=C\\CCCN4C[C@@H](CCCCC/1)C[C@@H]3C4)C2",
    "TARGET": "DU-145 prostate",
    "TGI": "23.9 µM"
  },
  {
    "COMPOUND": "CC1(C)CCC[C@@]2(C)C1CC[C@@]1(CO1)[C@@H]2/C=C\\C(C=O)CC=O (some centres undefined)",
    "TARGET": "DU-145 prostate",
    "TGI": "> 100 µM"
  },
  {
    "COMPOUND": "CC1=NNC(=O)C1C1C=C(c2c[nH]c3ccccc23)OC1=O (centres undefined)",
    "TARGET": "DU-145 prostate",
    "TGI": "> 100 µM"
  },
  {
    "COMPOUND": "CC(C)(C)OC(=O)N1Cc2cc3ccccc3nc2C1CO (centres undefined)",
    "TARGET": "DU-145 prostate",
    "TGI": "> 100 µM"
  },
  {
    "COMPOUND": "OCC1OC(n2cnc3c(NCc4ccccc4O)ncnc32)C(O)C1O (centres undefined)",
    "TARGET": "DU-145 prostate",
    "TGI": "> 32 µM"
  }
]

For `COc1cc(OC)nc(-n2c(N)c(C(=O)O)c3ccc([N+](=O)[O-])cc3c2=O)n1` on DU-145 prostate, measured TGI was > 100 µM

For `CC1(C)CC[C@]2(CO)CC[C@]3(C)C(=CC[C@@H]4[C@@]5(C)CCNCC(C)(C)[C@@H]5CC[C@]43C)[C@@H]2C1` on DU-145 prostate, measured TGI was 21 µM

For Cc1ccc(O)c(C2=NNC(c3cccc(Cl)c3)C2)c1 (centres undefined) on DU-145 prostate, measured TGI was > 100 µM

For `C=C1C(=O)O[C@H]2[C@H]1CC/C(COC(=O)/C=C\C(=O)NCc1ccc(Cn3c(=O)sn(-c4ccc(Cl)cc4)c3=O)cc1)=C\CC[C@@]1(C)O[C@@H]21` on DU-145 prostate, measured TGI was 1.3 µM

For `CCS(=O)(=O)N1CCN(c2ccc(Nc3ncc(C(N)=O)c(NC4CC4)n3)cc2)CC1` on DU-145 prostate, measured TGI was > 100 µM

For COC(=O)c1cc2c(cc1C(=O)OC)[C@@]1(C)CCCC(C)(C)C1CC2 (some centres undefined) on DU-145 prostate, measured TGI was 33.7 µM

----------
tested on: SF-295 CNS; test: NCI tumour cell line growth inhibition, 48 h
READOUT_NAME: TGI

So, COC1C(=O)N(SC)C1c1ccccc1Cl (stereo unspecified) ? Its TGI was > 100 µM

So, `CCOC(=O)c1nc2cc(F)cc(F)c2[nH]c1=O` ? Its TGI was > 100 µM

So, `CCOC(=O)c1csc(-c2cn(C)c3c2C(=O)C(OC)=CC3=O)n1` ? Its TGI was 96.9 µM

So, `Oc1ccc(/C=N/c2nccs2)c(O)c1` ? Its TGI was > 100 µM

So, Cc1nccn1CC1CCc2c(c3ccccc3n2C)C1=O (stereo unspecified) ? Its TGI was 60.9 µM

So, c1ccc(COC[C@H]2C3OCC([C@H](OCc4ccccc4)[C@H]3OCc3ccccc3)N2Cc2ccccc2)cc1 (stereo partly specified) ? Its TGI was > 100 µM
